Tested on: HBL-100
Assay: Cytotoxicity against human HBL100 cells after 72 hrs by MTT assay
Assay type: functional, cell-based
Conditions: HBL-100, 72 h

compound | unit_abbreviation | relation_operator | IC50
C#CCn1cc(C(=O)NC(CC(=O)Nc2ccccc2)c2ccccc2)c(=O)c2cccnc21 (stereo unspecified) | µM | > | 10
C#CCn1cc(C(=O)NC(CC(=O)Nc2ccccc2)c2ccccc2)c(=O)c2cc(F)c(Cl)nc21 (stereo unspecified) | µM | = | 9.3
C#CCn1cc(C(=O)NC(CC(=O)Nc2ccccn2)c2ccccc2)c(=O)c2ccc(Cl)nc21 (stereo unspecified) | µM | > | 10
C#CCn1cc(C(=O)NC(CC(=O)NC2CCCC2)c2ccccc2)c(=O)c2cc(F)c(Cl)nc21 (stereo unspecified) | µM | = | 2
C#CCn1cc(C(=O)NC(C(=O)Nc2ccccc2)c2ccccc2)c(=O)c2ccc(Cl)nc21 (stereo unspecified) | µM | = | 7.8
C#CCn1cc(C(=O)NC(C(=O)NC2CCCC2)c2ccccc2)c(=O)c2cc(F)c(Cl)nc21 (stereo unspecified) | µM | = | 5.1

====

Assay: Antiinflammatory activity in C57BL/6 mouse DC assessed as inhibition of LPS-induced IL-6 production at 1 ug/ml after 24 hrs by ELISA
Assay type: functional
Property: inhibition (INH); scope: individual compounds
assay_endpoint: inhibition (INH) (%)

compound | unit_abbreviation | val
C#CCn1cc(C(=O)NC(CC(=O)Nc2ccccn2)c2ccccc2)c(=O)c2cccnc21 (stereo not given) | % | 74.9
C#CCn1cc(C(=O)NC(C(=O)Nc2ccccc2)c2ccccc2)c(=O)c2ccc(Cl)nc21 (stereo not given) | % | 91.7
C#CCn1cc(C(=O)NC(CC(=O)Nc2ccccn2)c2ccccc2)c(=O)c2ccc(Cl)nc21 (stereo not given) | % | 82.9
C#CCn1cc(C(=O)NC(CC(=O)Nc2ccccn2)c2ccccc2)c(=O)c2cc(F)c(Cl)nc21 (stereo not given) | % | 99.1
C#CCn1cc(C(=O)NC(CC(=O)NC2CCCC2)c2ccccc2)c(=O)c2ccc(Cl)nc21 (stereo not given) | % | 81.7
C#CCn1cc(C(=O)NC(CC(=O)Nc2ccccc2)c2ccccc2)c(=O)c2ccc(Cl)nc21 (stereo not given) | % | 75.4
C#CCn1cc(C(=O)NC(C(=O)Nc2ccccc2)c2ccccc2)c(=O)c2cc(F)c(Cl)nc21 (stereo not given) | % | 99.9
C#CCn1cc(C(=O)NC(C(=O)Nc2ccccc2)c2ccccc2)c(=O)c2cccnc21 (stereo not given) | % | 79.3
C#CCn1cc(C(=O)NC(CC(=O)NC2CCCC2)c2ccccc2)c(=O)c2cc(F)c(Cl)nc21 (stereo not given) | % | 100
C#CCn1cc(C(=O)NC(CC(=O)Nc2ccccc2)c2ccccc2)c(=O)c2cc(F)c(Cl)nc21 (stereo not given) | % | 96

====

System: ECV-304
Assay: Cytotoxicity against human ECV304 cells after 72 hrs by MTT assay
Type: functional, cell-based
Details: Homo sapiens, ECV-304, 72 h; read-out: IC50

molecule | system_tested | unit_abbreviation | relation_operator | IC50
C#CCn1cc(C(=O)NC(C(=O)NC2CCCC2)c2ccccc2)c(=O)c2cc(F)c(Cl)nc21 (centres undefined) | ECV-304 | µM | = | 3.2
C#CCn1cc(C(=O)NC(CC(=O)NC2CCCC2)c2ccccc2)c(=O)c2ccc(Cl)nc21 (centres undefined) | ECV-304 | µM | = | 7.8
C#CCn1cc(C(=O)NC(C(=O)Nc2ccccc2)c2ccccc2)c(=O)c2cccnc21 (centres undefined) | ECV-304 | µM | > | 10
C#CCn1cc(C(=O)NC(CC(=O)Nc2ccccc2)c2ccccc2)c(=O)c2cccnc21 (centres undefined) | ECV-304 | µM | > | 10
C#CCn1cc(C(=O)NC(C(=O)Nc2ccccc2)c2ccccc2)c(=O)c2ccc(Cl)nc21 (centres undefined) | ECV-304 | µM | > | 10
C#CCn1cc(C(=O)NC(C(=O)NC2CCCC2)c2ccccc2)c(=O)c2cccnc21 (centres undefined) | ECV-304 | µM | > | 10
C#CCn1cc(C(=O)NC(CC(=O)Nc2ccccn2)c2ccccc2)c(=O)c2ccc(Cl)nc21 (centres undefined) | ECV-304 | µM | > | 10
C#CCn1cc(C(=O)NC(CC(=O)NC2CCCCC2)c2ccccc2)c(=O)c2cc(F)c(Cl)nc21 (centres undefined) | ECV-304 | µM | = | 9.8
C#CCn1cc(C(=O)NC(CC(=O)NC2CCCC2)c2ccccc2)c(=O)c2cc(F)c(Cl)nc21 (centres undefined) | ECV-304 | µM | = | 5.1
C#CCn1cc(C(=O)NC(C(=O)Nc2ccccc2)c2ccccc2)c(=O)c2cc(F)c(Cl)nc21 (centres undefined) | ECV-304 | µM | = | 9.1
C#CCn1cc(C(=O)NC(CC(=O)Nc2ccccc2)c2ccccc2)c(=O)c2cc(F)c(Cl)nc21 (centres undefined) | ECV-304 | µM | > | 10
C#CCn1cc(C(=O)NC(CC(=O)Nc2ccccn2)c2ccccc2)c(=O)c2cc(F)c(Cl)nc21 (centres undefined) | ECV-304 | µM | > | 10
C#CCn1cc(C(=O)NC(CC(=O)Nc2ccccc2)c2ccccc2)c(=O)c2ccc(Cl)nc21 (centres undefined) | ECV-304 | µM | = | 4
C#CCn1cc(C(=O)NC(C(=O)NC2CCCCC2)c2ccccc2)c(=O)c2cc(F)c(Cl)nc21 (centres undefined) | ECV-304 | µM | > | 10
